Biological target: Caspase-3 (Homo sapiens)
Assay: Inhibition of human recombinant caspase 3 assessed as accumulation of cleaved fluorogenic 7-amino-4-methylcoumarin after 10 mins
pIC50: −log10 of the molar value.
Binary classification by pIC50, with 8 as an inclusive lower bound for 1 (yes); all other cases are 0 (no).

INSERT INTO results (molecule, class_name) VALUES
  ('COC[C@@H]1CCCN1S(=O)(=O)c1ccc2c(c1)C(=O)C(=O)N2Cc1ccc(C(F)CO)cc1 (some centres undefined)', '0 (no)'),
  ('COC[C@@H]1CCCN1S(=O)(=O)c1ccc2c(c1)C(=O)C(=O)N2CCC(O)CO (some centres undefined)', '0 (no)'),
  ('CN1C(=O)C(=O)c2cc(S(=O)(=O)N3CCC[C@H]3COc3ccccc3)ccc21', '1 (yes)'),
  ('COC[C@@H]1CCCN1S(=O)(=O)c1ccc2c(c1)C(=O)C(=O)N2C[C@H](O)CF', '0 (no)'),
  ('C=CCN1C(=O)C(=O)c2cc(S(=O)(=O)N3CCC[C@H]3COC)ccc21', '0 (no)'),
  ('COC[C@@H]1CCCN1S(=O)(=O)c1ccc2c(c1)C(=O)C(=O)N2Cc1ccc(OCC2CO2)cc1 (some centres undefined)', '0 (no)');

---

# pIC50 values compiled below
Biological target: UniProtKB P42574
Sequence (P42574 whole entry): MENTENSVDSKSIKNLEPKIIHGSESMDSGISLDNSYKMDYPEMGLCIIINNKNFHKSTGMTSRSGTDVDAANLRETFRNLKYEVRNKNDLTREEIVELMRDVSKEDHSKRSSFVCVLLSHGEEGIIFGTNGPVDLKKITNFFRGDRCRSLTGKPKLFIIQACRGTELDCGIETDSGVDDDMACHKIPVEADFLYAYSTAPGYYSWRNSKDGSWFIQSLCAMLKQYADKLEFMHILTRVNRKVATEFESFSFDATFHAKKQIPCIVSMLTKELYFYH
Test: Inhibition of human recombinant caspase 3 assessed as accumulation of cleaved fluorogenic 7-amino-4-methylcoumarin after 10 mins
pIC50: −log10 of the molar value.
quantity-kind: pIC50

INSERT INTO assay_data (molecule, value) VALUES
  ('C=CCOc1ccc(CN2C(=O)C(=O)c3cc(S(=O)(=O)N4CCC[C@H]4COC)ccc32)cc1', 8.00),
  ('C=CCCCCCCCCCN1C(=O)C(=O)c2cc(S(=O)(=O)N3CCC[C@H]3COC)ccc21', 7.13),
  ('COC[C@@H]1CCCN1S(=O)(=O)c1ccc2c(c1)C(=O)C(=O)N2Cc1ccc(OCC(O)CF)cc1 (stereo not given in full)', 6.84),
  ('COC[C@@H]1CCCN1S(=O)(=O)c1ccc2c(c1)C(=O)C(=O)N2CC(F)(F)CBr', 5.73),
  ('COC[C@@H]1CCCN1S(=O)(=O)c1ccc2c(c1)C(=O)C(=O)N2CCC(O)CF (stereo not given in full)', 8.44),
  ('COC[C@@H]1CCCN1S(=O)(=O)c1ccc2c(c1)C(=O)C(=O)N2C[C@H](O)CO', 7.96),
  ('C=CCCN1C(=O)C(=O)c2cc(S(=O)(=O)N3CCC[C@H]3COC)ccc21', 7.51),
  ('COC[C@@H]1CCCN1S(=O)(=O)c1ccc2c(c1)C(=O)C(=O)N2CCC1CO1 (stereo not given in full)', 6.82),
  ('COC[C@@H]1CCCN1S(=O)(=O)c1ccc2c(c1)C(=O)C(=O)N2Cc1ccc(C(F)CBr)cc1 (stereo not given in full)', 7.37),
  ('COC[C@@H]1CCCN1S(=O)(=O)c1ccc2c(c1)C(=O)C(=O)N2CCCCCCCCCC1CO1 (stereo not given in full)', 7.64);
